- testDescription: The drug is tested on Eubacterium ventriosum strain: ATCC27560 for biotransformation. The drug concentrations were measured before and after a 12-h incubation by liquid-chromatography-coupled mass spectrometry (LC–MS)
- Type: ADME
- Set-up: dose 2 uM, timepoint 0 vs 12 hours
- setupConditions: 2 µM
measureName: Bacterial Biotransformation

{"columns": ["molecule", "measureName", "measurement"],
 "data": [
  ["C#C[C@]1(O)CC[C@H]2[C@@H]3CCC4=CC(=O)CC[C@@H]4[C@H]3CC[C@@]21CC [LEVONORGESTREL]", "Bacterial Biotransformation", "Compound NOT metabolized"],
  ["CN(CCOc1ccc(CC2SC(=O)NC2=O)cc1)c1ccccn1.O=C(O)/C=C\\C(=O)O (configuration not stated) [ROSIGLITAZONE MALEATE]", "Bacterial Biotransformation", "Compound NOT metabolized"],
  ["COc1ccccc1OCCNCC(O)COc1cccc2[nH]c3ccccc3c12 (configuration not stated) [CARVEDILOL]", "Bacterial Biotransformation", "Compound metabolized"],
  ["CC[C@@H](CO)NC(=O)[C@@H]1C=C2c3cccc4c3c(cn4C)C[C@H]2N(C)C1.O=C(O)/C=C\\C(=O)O [METHYSERGIDE MALEATE]", "Bacterial Biotransformation", "Compound metabolized"],
  ["C=CC[C@@H]1/C=C(\\C)C[C@H](C)C[C@H](OC)[C@H]2O[C@@](O)(C(=O)C(=O)N3CCCC[C@H]3C(=O)O[C@H](/C(C)=C/[C@@H]3CC[C@@H](O)[C@H](OC)C3)[C@H](C)[C@@H](O)CC1=O)[C@H](C)C[C@@H]2OC.O [TACROLIMUS]", "Bacterial Biotransformation", "Compound NOT metabolized"],
  ["OC(CCN1CCCCC1)(c1ccccc1)C1CC2C=CC1C2 (configuration not stated) [BIPERIDEN]", "Bacterial Biotransformation", "Compound NOT metabolized"],
  ["COc1ccc2[nH]c([S+]([O-])Cc3ncc(C)c(OC)c3C)nc2n1 (configuration not stated) [TENATOPRAZOLE]", "Bacterial Biotransformation", "Compound metabolized"],
  ["CCCN(CCC)CCc1cccc2c1CC(=O)N2 [ROPINIROLE]", "Bacterial Biotransformation", "Compound NOT metabolized"],
  ["CN(C/C=C/C#CC(C)(C)C)Cc1cccc2ccccc12 [TERBINAFINE]", "Bacterial Biotransformation", "Compound NOT metabolized"],
  ["Cc1nc(Nc2ncc(C(=O)Nc3c(C)cccc3Cl)s2)cc(N2CCN(CCO)CC2)n1.O [DASATINIB]", "Bacterial Biotransformation", "Compound NOT metabolized"],
  ["COc1ccc([C@@H]2Sc3ccccc3N(CCN(C)C)C(=O)[C@@H]2OC(C)=O)cc1 [DILTIAZEM]", "Bacterial Biotransformation", "Compound NOT metabolized"],
  ["O=C1[C@H](CC[C@H](O)c2ccc(F)cc2)[C@@H](c2ccc(O)cc2)N1c1ccc(F)cc1 [EZETIMIBE]", "Bacterial Biotransformation", "Compound metabolized"],
  ["N#Cc1ccc2c(c1)N(CCCN1CCC(O)CC1)c1ccccc1S2 [PERICIAZINE]", "Bacterial Biotransformation", "Compound NOT metabolized"],
  ["COc1cc2nc(N(C)CCCNC(=O)C3CCCO3)nc(N)c2cc1OC (configuration not stated) [ALFUZOSIN]", "Bacterial Biotransformation", "Compound NOT metabolized"],
  ["CN(C)C(=O)C(CCN1CCC(O)(c2ccc(Cl)cc2)CC1)(c1ccccc1)c1ccccc1 [LOPERAMIDE]", "Bacterial Biotransformation", "Compound NOT metabolized"],
  ["CN1CCC(OC(c2ccccc2)c2ccccc2)CC1", "Bacterial Biotransformation", "Compound NOT metabolized"],
  ["Clc1cccc(Cl)c1N=C1NCCN1 [CLONIDINE]", "Bacterial Biotransformation", "Compound NOT metabolized"]
]}

----------
- testDescription: The drug is tested on Bacteroides pectinophilus strain: ATCC43243 for biotransformation. The drug concentrations were measured before and after a 12-h incubation by liquid-chromatography-coupled mass spectrometry (LC–MS)
- setupConditions: 2 µM

{"columns": ["compound", "Bacterial Biotransformation"],
 "data": [
  ["CCOC(=O)[C@H](CCc1ccccc1)N[C@@H](C)C(=O)N1CCC[C@H]1C(=O)O.O=C(O)/C=C\\C(=O)O [ENALAPRIL MALEATE]", "Compound NOT metabolized"],
  ["CCc1cccc2c3c([nH]c12)C(CC)(CC(=O)O)OCC3 (stereo not given) [ETODOLAC]", "Compound NOT metabolized"],
  ["CN(C)C(=O)Oc1cccc([N+](C)(C)C)c1.[Br-] [NEOSTIGMINE BROMIDE]", "Compound NOT metabolized"],
  ["CCCN1C[C@H](CSC)C[C@@H]2c3cccc4[nH]cc(c34)C[C@H]21.CS(=O)(=O)O [PERGOLIDE MESYLATE]", "Compound NOT metabolized"],
  ["CN1C(C(=O)Nc2ccccn2)=C(O)c2sccc2S1(=O)=O [TENOXICAM]", "Compound NOT metabolized"]
]}

----------
- setupConditions: bacteroides fragilis, 12 h, 2 µM
- Description: The drug is tested on Bacteroides fragilis strain: NCTC 9343 for biotransformation. The drug concentrations were measured before and after a 12-h incubation by liquid-chromatography-coupled mass spectrometry (LC–MS)

{"columns": ["molecule", "Bacterial Biotransformation"],
 "data": [
  ["CC(C)(C)NC[C@H](O)COc1nsnc1N1CCOCC1.O=C(O)/C=C\\C(=O)O [TIMOLOL MALEATE]", "Compound NOT metabolized"],
  ["COc1ccc2c(c1OC)C(=O)O[C@@H]2[C@H]1c2c(cc3c(c2OC)OCO3)CCN1C", "Compound metabolized"],
  ["Br.CN(C)CCCC1(c2ccc(F)cc2)OCc2cc(C#N)ccc21 (centres undefined) [CITALOPRAM HYDROBROMIDE]", "Compound NOT metabolized"],
  ["CCN(CC)CCNC(=O)c1cc(Cl)c(N)cc1OC [METOCLOPRAMIDE]", "Compound NOT metabolized"],
  ["O=C(CCCN1CCC(O)(c2ccc(Cl)cc2)CC1)c1ccc(F)cc1", "Compound NOT metabolized"],
  ["CC(=O)OCC(=O)NCCCOc1cccc(CN2CCCCC2)c1 [ROXATIDINE ACETATE]", "Compound metabolized"],
  ["CCC(=O)NCC[C@@H]1CCc2ccc3c(c21)CCO3", "Compound metabolized"],
  ["CCOc1ccc(NC(C)=O)cc1", "Compound NOT metabolized"],
  ["CCOC(=O)C1=C(C)NC(C)=C(C(=O)OC)C1c1cccc([N+](=O)[O-])c1 (centres undefined)", "Compound metabolized"]
]}

----------
- testDescription: The drug is tested on Clostridium scindens strain: ATCC35704 for biotransformation. The drug concentrations were measured before and after a 12-h incubation by liquid-chromatography-coupled mass spectrometry (LC–MS)
- setupConditions: 2 µM
measureName: Bacterial Biotransformation

{"columns": ["compound", "measurement"],
 "data": [
  ["CC12CC3CC(C)(C1)CC(N)(C3)C2 [MEMANTINE]", "Compound NOT metabolized"],
  ["CN(C)CCC=C1c2ccccc2C=Cc2ccccc21", "Compound NOT metabolized"],
  ["O=C(O)c1cc(/N=N/c2ccc(S(=O)(=O)Nc3ccccn3)cc2)ccc1O", "Compound metabolized"],
  ["C=CCc1ccccc1OCC(O)CNC(C)C (configuration not stated)", "Compound NOT metabolized"],
  ["CCN(CC)CC#CCOC(=O)C(O)(c1ccccc1)C1CCCCC1.Cl (configuration not stated) [OXYBUTYNIN CHLORIDE]", "Compound NOT metabolized"],
  ["CC[C@H](C)C(=O)O[C@H]1CCC=C2C=C[C@H](C)[C@H](CC[C@@H]3C[C@@H](O)CC(=O)O3)[C@H]21", "Compound metabolized"],
  ["CC(C)(C)N.CCC[C@H](N[C@@H](C)C(=O)N1[C@H](C(=O)O)C[C@@H]2CCCC[C@@H]21)C(=O)OCC", "Compound NOT metabolized"],
  ["Nc1nc(N)nc(-c2cc(Cl)ccc2Cl)n1.O=C(O)/C=C\\C(=O)O [IRSOGLADINE MALEATE]", "Compound NOT metabolized"],
  ["CN(C)C(=O)Oc1cc(OC(=O)N(C)C)cc(C(O)CNC(C)(C)C)c1 (configuration not stated)", "Compound NOT metabolized"],
  ["C[N+]12CCC(CC1)C(OC(=O)C(O)(c1ccccc1)c1ccccc1)C2.[Br-] (configuration not stated) [CLIDINIUM BROMIDE]", "Compound NOT metabolized"],
  ["O=C(Nc1ccccc1)OCC(CN1CCCCC1)OC(=O)Nc1ccccc1 (configuration not stated)", "Compound NOT metabolized"],
  ["C[C@@H](c1ncncc1F)[C@](O)(Cn1cncn1)c1ccc(F)cc1F", "Compound NOT metabolized"],
  ["Nc1c2c(nc3ccccc13)CCCC2", "Compound NOT metabolized"],
  ["CC(C)N(CCC(C(N)=O)(c1ccccc1)c1ccccn1)C(C)C.O=P(O)(O)O (configuration not stated) [DISOPYRAMIDE PHOSPHATE]", "Compound NOT metabolized"],
  ["COc1ccc2c(c1OC)C(=O)O[C@@H]2[C@H]1c2c(cc3c(c2OC)OCO3)CCN1C", "Compound metabolized"],
  ["COc1ccc2c(c1)c(CC(=O)O)c(C)n2C(=O)c1ccc(Cl)cc1", "Compound NOT metabolized"],
  ["CC#CCn1c(N2CCC[C@@H](N)C2)nc2c1c(=O)n(Cc1nc(C)c3ccccc3n1)c(=O)n2C", "Compound NOT metabolized"],
  ["CCOc1cc(CC(=O)N[C@@H](CC(C)C)c2ccccc2N2CCCCC2)ccc1C(=O)O [REPAGLINIDE]", "Compound NOT metabolized"],
  ["O=C(O)CCc1nc(-c2ccccc2)c(-c2ccccc2)o1", "Compound NOT metabolized"],
  ["OCCN1CCN(CCCN2c3ccccc3Sc3ccc(C(F)(F)F)cc32)CC1", "Compound NOT metabolized"],
  ["CCC(=O)NCC[C@@H]1CCc2ccc3c(c21)CCO3", "Compound NOT metabolized"],
  ["OC(Cn1cncn1)(Cn1cncn1)c1ccc(F)cc1F", "Compound metabolized"],
  ["CCS(=O)(=O)CCn1c([N+](=O)[O-])cnc1C", "Compound metabolized"],
  ["CCOC(=O)[C@H](CCc1ccccc1)N[C@@H](C)C(=O)N1[C@H](C(=O)O)C[C@H]2CCCC[C@@H]21", "Compound NOT metabolized"],
  ["CCCc1nc2c(C)cc(-c3nc4ccccc4n3C)cc2n1Cc1ccc(-c2ccccc2C(=O)O)cc1", "Compound NOT metabolized"],
  ["CCN(CC)CCOCCOC(=O)C1(c2ccccc2)CCCC1.O=C(O)CC(O)(CC(=O)O)C(=O)O [CARBETAPENTANE CITRATE]", "Compound metabolized"],
  ["COc1ccc2[nH]c([S+]([O-])Cc3ncc(C)c(OC)c3C)nc2n1 (configuration not stated)", "Compound metabolized"],
  ["N#Cc1ccc2c(c1)N(CCCN1CCC(O)CC1)c1ccccc1S2", "Compound NOT metabolized"],
  ["CN1C[C@H](C(=O)N[C@]2(C)O[C@@]3(O)[C@@H]4CCCN4C(=O)[C@H](Cc4ccccc4)N3C2=O)C=C2c3cccc4[nH]cc(c34)C[C@H]21.CN1C[C@H](C(=O)N[C@]2(C)O[C@@]3(O)[C@@H]4CCCN4C(=O)[C@H](Cc4ccccc4)N3C2=O)C=C2c3cccc4[nH]cc(c34)C[C@H]21.O=C(O)C(O)C(O)C(=O)O [ERGOTAMINE TARTRATE]", "Compound metabolized"],
  ["CCN(CC)CCNC(=O)c1cc(S(C)(=O)=O)ccc1OC [TIAPRIDE]", "Compound NOT metabolized"],
  ["COc1ccc(Cc2nccc3cc(OC)c(OC)cc23)cc1OC", "Compound NOT metabolized"],
  ["Br.COc1ccc2c(c1)[C@]13CCCC[C@@H]1[C@H](C2)N(C)CC3.O [DEXTROMETHORPHAN HYDROBROMIDE]", "Compound NOT metabolized"]
]}
